Numbers sourced from ChEMBL document CHEMBL4028855.

assay: Inhibition of bovine heart mitochondrial ATP synthase activity assessed as decrease in ATP-dependent NADH oxidation measured every 30 secs for 30 mins by colorimetric assay relative to control; set-up: species or system Bos taurus
pIC50: −log10 of the molar value.
reported metric: pIC50

1) CO[C@H]1[C@H](O[C@@H]2C[C@@H]3C/C=C/C(=O)O[C@H](CO)C[C@H](O)[C@@H]4C[C@H](C)[C@H](C/C=C\C=C\[C@H](C)C[C@H](C2)O3)O4)O[C@@H](C)[C@H](O)[C@H]1O
8.66
2) CCCC(=O)O[C@H]1C[C@H]2C[C@@H](O)C[C@@H](C[C@@H](C)/C=C/C=C\C[C@@H]3O[C@@H](C[C@@H]3C)[C@@H](O)C[C@@H]3OC(=O)[C@]1(O)[C@@H]3O)O2
5.47
